Target: T1, HLA-B*44:05 (human)
T1 construct: also called peptide-receptive MHC class I molecule
Experiment: UV peptide exchange, anti-b2m ELISA
MEASURED ENDPOINT: peptide exchange yield

Example binders with recorded peptide exchange yield:
EEQLLQKVM	> 75%
KEWEREKAVSL	50 to 75%
DEIFTNDRRW	20 to 50%
AELPENLKALF	50 to 75%
IEVSSPITLQAL	20 to 50%
EEYAGQITL	50 to 75%
SQYPHTHTF	50 to 75%
QEDELVKIRKY	50 to 75%
SESALQTVI	50 to 75%
NEILTIHF	20 to 50%

Below is a list of binders. For each, state its recorded peptide exchange yield.
1. MEGAALLKIF
2. MELQVSSGF
3. QEDEQLLLRF
4. TEDYSKQAL
5. VEVNGVPRW
6. REYEDGPLSL
7. AELMDKPLTF

**A:**
["50 to 75%", "50 to 75%", "50 to 75%", "50 to 75%", "> 75%", "50 to 75%", "50 to 75%"]

Cited source for all entries: patent US20200087363A1
